Where these numbers come from: ChEMBL document CHEMBL1136741

Test system: Enterococcus faecium
method: Antibacterial activity against glycopeptide susceptible Enterococcus faecium 568 strain
Format: functional
quantity_measured: MIC (µg/mL)
API: value field is a number in µg/mL; no unit string.

NC(=O)C[C@@H]1NC(=O)[C@H](N)[C@H](O)c2ccc(c(Cl)c2)Oc2cc3cc(c2O)Oc2ccc(cc2)[C@@H](O)[C@@H]2NC(=O)[C@H](NC(=O)[C@@H]3NC1=O)c1ccc(O)c(c1)-c1c(O)cc(O)cc1[C@@H](C(=O)NCc1ccc(-c3ccc(Cl)cc3)cc1)NC2=O
32
CC(=O)N[C@@H]1[C@H](O[C@@H]2c3ccc(c(Cl)c3)Oc3cc(cc(Oc4ccc(C[C@@H](N)CO)cc4Cl)c3O)[C@@H](N)C(=O)N[C@H]3C(=O)N[C@@H]2C(=O)N[C@H](C(=O)O)c2cc(O)cc(O[C@H]4O[C@H](CO)[C@@H](O)[C@@H](O)[C@@H]4O)c2-c2cc3ccc2O)O[C@@H](CO)[C@@H](O)[C@@H]1O
32
CCCCCCCCCCNC(=O)[C@H]1NC(=O)[C@H]2NC(=O)[C@H](NC(=O)[C@@H]3NC(=O)[C@H](CC(N)=O)NC(=O)[C@H](NC(=O)[C@@H](CC(C)C)NC)[C@H](O)c4ccc(c(Cl)c4)Oc4cc3cc(c4O[C@@H]3O[C@H](CO)[C@@H](O)[C@H](O)[C@H]3O[C@H]3C[C@](C)(N)[C@@H](O)[C@H](C)O3)Oc3ccc(cc3)[C@H]2O[C@H]2C[C@](C)(N)[C@@H](O)[C@H](C)O2)c2ccc(O)c(c2)-c2c(O)cc(O)cc21
0.5

Turning now to a further molecule:
**Q:** Give a short answer stating reported MIC for "CCCCCCCCCCNC(=O)[C@H]1NC(=O)[C@H]2NC(=O)[C@H](NC(=O)[C@@H]3NC(=O)[C@H](CC(N)=O)NC(=O)[C@H](N)[C@H](O)c4ccc(c(Cl)c4)Oc4cc3cc(c4O[C@@H]3O[C@H](CO)[C@@H](O)[C@H](O)[C@H]3O[C@H]3C[C@](C)(N)[C@@H](O)[C@H](C)O3)Oc3ccc(cc3)[C@H]2O[C@H]2C[C@](C)(N)[C@@H](O)[C@H](C)O2)c2ccc(O)c(c2)-c2c(O)cc(O)cc21" .
**A:** 2

====

Test system: Enterococcus faecium
method: Antibacterial activity against glycopeptide susceptible Enterococcus faecium 568 strain
Format: functional
Overview of reported MIC across a group of compounds:
Reply numerically in µg/mL, unit not repeated.

Recorded MIC, per entry:
CCCCCCCCCCNC(=O)[C@H]1NC(=O)[C@H]2NC(=O)[C@H](NC(=O)[C@@H]3NC(=O)[C@H](CC(N)=O)NC(=O)[C@H](NC(=O)[C@@H](CC(C)C)NC)[C@H](O)c4ccc(c(Cl)c4)Oc4cc3cc(c4O)Oc3ccc(cc3)[C@H]2O)c2ccc(O)c(c2)-c2c(O)cc(O)cc21
4
CN[C@H](CC(C)C)C(=O)N[C@H]1C(=O)N[C@@H](CC(N)=O)C(=O)N[C@H]2C(=O)N[C@H]3C(=O)N[C@H](C(=O)N[C@H](C(=O)NCc4ccc(-c5ccc(Cl)cc5)cc4)c4cc(O)cc(O)c4-c4cc3ccc4O)[C@H](O)c3ccc(cc3)Oc3cc2cc(c3O)Oc2ccc(cc2Cl)[C@H]1O
8

# evaluate next
**Q:** Indicate its recorded MIC; the compound in question is "CCCCCCCCCCNC(=O)[C@H]1NC(=O)[C@H]2NC(=O)[C@H](NC(=O)[C@@H]3NC(=O)[C@H]4NC(=O)[C@@H](Cc5ccc(c(Cl)c5)Oc5cc3cc(c5O)Oc3ccc(cc3Cl)[C@H]2O)NC(=O)[C@H](N)c2ccc(O)c(c2)Oc2cc(O)cc4c2)c2ccc(O)c(c2)-c2c(O)cc(O)cc21"
**A:** 0.25
